System: 556581-035-R-J1 tumor spheroid viability, % test/control;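 further: spheroids exposed to compounds for 7 days before viability read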
PROTOCOL_NOTES: Anticancer human tumor 556581-035-R-J1 patient-derived ovarian carcinoma cell line growth inhibition
STATED_CONDITIONS: curve of first compound; second compound 0.0949 µM; spheroids with HUVEC and MSC
Kindly supply the reported pIC50 values for the records listed here.
Numbers only, as −log10 of the molar value.

COMPOUND	pIC50
[2H]c1nc(C)nc([2H])c1-c1cc(NC[C@@H](C)c2cccc3c(C(=O)NC)ccnc23)ncn1 + CC[C@@]1(O)C(=O)OCc2c1cc1n(c2=O)Cc2cc3c(CN(C)C)c(O)ccc3nc2-1	5.24
Cn1ncnc1[C@H]1c2n[nH]c(=O)c3cc(F)cc(c23)N[C@@H]1c1ccc(F)cc1 + CC[C@@]1(O)C(=O)OCc2c1cc1n(c2=O)Cc2cc3c(CN(C)C)c(O)ccc3nc2-1	7.17

// batch mode: one pIC50 value per listed entry
1. CNCc1ccc(-c2cc(-c3nc(-c4ccc(S(=O)(=O)C(C)C)cc4)cnc3N)on2)cc1 + CC[C@@]1(O)C(=O)OCc2c1cc1n(c2=O)Cc2cc3c(CN(C)C)c(O)ccc3nc2-1
2. CC(C)n1c(=O)n(C)c2cnc3cc(F)c(-c4ccc(OCCCN5CCCCC5)nc4)cc3c21 + CC[C@@]1(O)C(=O)OCc2c1cc1n(c2=O)Cc2cc3c(CN(C)C)c(O)ccc3nc2-1

OUT:
[6.57, 5.47]
